The reported numbers originate from patent US20230293495A1.

assay: Excipient compatibility study: binary mixtures of Compound B and excipient in open vials, assay and related substances (RS); format: physicochemical; conditions: 2 weeks, 50° C./75% RH
Quantity: Related substance RRT 1.081

### Prompt Answer with the recorded Related substance RRT 1.081 of CN1CCN(C(=O)[C@H](CCCN[C@@H]2C[C@H]2c2ccc(F)cc2)NC(=O)c2ccc(-n3ccnn3)cc2)CC1.Cc1ccc(S(=O)(=O)O)cc1 [Compound B] only.
### Response 0.0715%
